compounds and their reported GI50
Test system: LoVo
procedure_text: Cytotoxicity against human doxorubicin resistant LoVo cells after 48 hrs by SRB assay
Assay type: functional
Express your answer in nM, writing the number without its unit.

>>> assay_value("C/C=C1\\NC(=O)[C@H](Cc2ccc(F)c(F)c2)NC(=O)[C@@H](C(C)C)NC(=O)[C@@H]([C@H](C)CC)NC(=O)[C@H](NC(=O)[C@H](NC(=O)[C@H](CCCN)NC(=O)[C@H]2CCCN2C(=O)[C@H](NC(=O)[C@@H](NC(=O)[C@@H](NC(=O)[C@H](NC(=O)CCCC(C)C)C(C)C)[C@@H](C)O)C(C)C)C(C)C)[C@H](C)CC)[C@H](C)OC(=O)[C@H](C(C)C)NC1=O")
18.4

Then there is this compound:
Report GI50, nothing else, for this compound: C/C=C1\NC(=O)[C@H](Cc2ccccc2)NC(=O)[C@@H](C(C)C)NC(=O)[C@@H]([C@H](C)CC)NC(=O)[C@H](NC(=O)[C@H](NC(=O)[C@H](CCCN)NC(=O)[C@H]2CCCN2C(=O)[C@H](NC(=O)[C@H](CCC2CCCCC2)NC(=O)[C@@H](NC(=O)[C@@H](CC2CCCCC2)NC(=O)CCCC(C)C)[C@@H](C)O)C(C)C)[C@H](C)CC)[C@H](C)OC(=O)[C@H](C(C)C)NC1=O
1210

###

System: PANC-1
procedure_text: Cytotoxicity against human PANC1 cells after 48 hrs by SRB assay
Type: functional
run_conditions: PANC-1, 48 h, read-out: LC50 (the source's name)
Overview of recorded CC50 for various compounds
Respond with the bare value in µM.

>>> assay_value("C/C=C1\\NC(=O)[C@H](Cc2ccccc2)NC(=O)[C@@H](C(C)C)NC(=O)[C@@H]([C@H](C)CC)NC(=O)[C@H](NC(=O)[C@H](NC(=O)[C@H](CCCN)NC(=O)[C@H]2CCCN2C(=O)[C@H](NC(=O)[C@@H](NC(=O)[C@@H](NC(=O)[C@H](NC(=O)C2CCC(C)CC2)C(C)C)[C@@H](C)O)C(C)C)C(C)C)[C@H](C)CC)[C@H](C)OC(=O)[C@H](C(C)C)NC1=O (stereo not given in full)")
2.3

Please report the measured CC50 for C/C=C1\NC(=O)[C@H](CCC2CCCCC2)NC(=O)[C@@H](C(C)C)NC(=O)[C@@H]([C@@H](C)CC)NC(=O)[C@H](NC(=O)[C@H](NC(=O)[C@H](CCCN)NC(=O)[C@H]2CCCN2C(=O)[C@H](NC(=O)[C@@H](NC(=O)[C@@H](NC(=O)[C@H](NC(=O)CCCC(C)C)C(C)C)[C@@H](C)O)C(C)C)C(C)C)[C@@H](C)CC)[C@@H](C)OC(=O)[C@H](C(C)C)NC1=O
1.49

Respond only with CC50 recorded for C/C=C1\NC(=O)[C@H](Cc2ccccc2)NC(=O)[C@@H](C(C)C)NC(=O)[C@@H]([C@H](C)CC)NC(=O)[C@H](NC(=O)[C@H](NC(=O)[C@H](CCCN)NC(=O)[C@H]2CCCN2C(=O)[C@H](NC(=O)[C@@H](NC(=O)[C@@H](NC(=O)[C@H](NC(=O)Cc2ccc(C(F)(F)F)cc2)C(C)C)[C@@H](C)O)C(C)C)C(C)C)[C@H](C)CC)[C@H](C)OC(=O)[C@H](C(C)C)NC1=O
2.34

Please report the measured CC50 for C/C=C1\NC(=O)[C@H](Cc2ccccc2)NC(=O)[C@@H](C(C)C)NC(=O)[C@@H]([C@H](C)CC)NC(=O)[C@H](NC(=O)[C@H](NC(=O)[C@H](CCCN)NC(=O)[C@H]2CCCN2C(=O)[C@H](NC(=O)[C@H](C)NC(=O)[C@@H](NC(=O)[C@H](NC(=O)CCCC(C)C)C(C)C)[C@@H](C)O)C(C)C)[C@H](C)CC)[C@H](C)OC(=O)[C@H](C(C)C)NC1=O
2.58
